Values compiled from ChEMBL document CHEMBL3885861.

The reader will find reported Mono values listed item by item below.
Organism: Rattus norvegicus
Assay: Open TG-GATES - Regimen: Daily Repeat
Format: toxicity, organism-based, Sprague-Dawley
Parameters: regimen Daily Repeat, gender Male, age 6 weeks
Details: in vivo, po, 0 mg/kg, […], tissue Blood, route gavage, dose level Control, time 7 day

>  <compound>
CC(=O)[C@@]1(O)CC[C@H]2[C@@H]3C=C(Cl)C4=CC(=O)CC[C@]4(C)[C@H]3CC[C@@]21C

>  <Mono, %>
2.2

$$$$
>  <compound>
CCN(CC)C(=S)SSC(=S)N(CC)CC

>  <Mono, %>
2.8

$$$$
>  <compound>
Nc1ccc(Cc2ccc(N)cc2)cc1

>  <Mono, %>
2.2

$$$$
>  <compound>
CCCCNC(=O)NS(=O)(=O)c1ccc(C)cc1 [TOLBUTAMIDE]

>  <Mono, %>
2.6

$$$$
>  <compound>
COc1ccc([C@@H]2Sc3ccccc3N(CCN(C)C)C(=O)[C@@H]2OC(C)=O)cc1

>  <Mono, %>
2.8

$$$$
>  <compound>
CCCCC1C(=O)N(c2ccccc2)N(c2ccccc2)C1=O

>  <Mono, %>
6.6

$$$$
>  <compound>
O=C(O)c1ccccc1Nc1ccccc1

>  <Mono, %>
2.2

$$$$
>  <compound>
NS(=O)(=O)c1cc(C(=O)O)c(NCc2ccco2)cc1Cl [FUROSEMIDE]

>  <Mono, %>
2.6

$$$$
>  <compound>
CN(C/C=C/C#CC(C)(C)C)Cc1cccc2ccccc12

>  <Mono, %>
2.8

$$$$
>  <compound>
CC(S)C(=O)NCC(=O)O (stereo not drawn)

>  <Mono, %>
2

$$$$
>  <compound>
CCO

>  <Mono, %>
4

$$$$
>  <compound>
O=c1ccc2ccccc2o1

>  <Mono, %>
4

$$$$
>  <compound>
CN(CCOc1ccc(CC2SC(=O)NC2=O)cc1)c1ccccn1.O=C(O)/C=C\C(=O)O (stereo not drawn) [ROSIGLITAZONE MALEATE]

>  <Mono, %>
4.4

$$$$
